STUDY_SYSTEM: human Nav1.7 (Homo sapiens (Human))
Sequence (Q15858 whole entry): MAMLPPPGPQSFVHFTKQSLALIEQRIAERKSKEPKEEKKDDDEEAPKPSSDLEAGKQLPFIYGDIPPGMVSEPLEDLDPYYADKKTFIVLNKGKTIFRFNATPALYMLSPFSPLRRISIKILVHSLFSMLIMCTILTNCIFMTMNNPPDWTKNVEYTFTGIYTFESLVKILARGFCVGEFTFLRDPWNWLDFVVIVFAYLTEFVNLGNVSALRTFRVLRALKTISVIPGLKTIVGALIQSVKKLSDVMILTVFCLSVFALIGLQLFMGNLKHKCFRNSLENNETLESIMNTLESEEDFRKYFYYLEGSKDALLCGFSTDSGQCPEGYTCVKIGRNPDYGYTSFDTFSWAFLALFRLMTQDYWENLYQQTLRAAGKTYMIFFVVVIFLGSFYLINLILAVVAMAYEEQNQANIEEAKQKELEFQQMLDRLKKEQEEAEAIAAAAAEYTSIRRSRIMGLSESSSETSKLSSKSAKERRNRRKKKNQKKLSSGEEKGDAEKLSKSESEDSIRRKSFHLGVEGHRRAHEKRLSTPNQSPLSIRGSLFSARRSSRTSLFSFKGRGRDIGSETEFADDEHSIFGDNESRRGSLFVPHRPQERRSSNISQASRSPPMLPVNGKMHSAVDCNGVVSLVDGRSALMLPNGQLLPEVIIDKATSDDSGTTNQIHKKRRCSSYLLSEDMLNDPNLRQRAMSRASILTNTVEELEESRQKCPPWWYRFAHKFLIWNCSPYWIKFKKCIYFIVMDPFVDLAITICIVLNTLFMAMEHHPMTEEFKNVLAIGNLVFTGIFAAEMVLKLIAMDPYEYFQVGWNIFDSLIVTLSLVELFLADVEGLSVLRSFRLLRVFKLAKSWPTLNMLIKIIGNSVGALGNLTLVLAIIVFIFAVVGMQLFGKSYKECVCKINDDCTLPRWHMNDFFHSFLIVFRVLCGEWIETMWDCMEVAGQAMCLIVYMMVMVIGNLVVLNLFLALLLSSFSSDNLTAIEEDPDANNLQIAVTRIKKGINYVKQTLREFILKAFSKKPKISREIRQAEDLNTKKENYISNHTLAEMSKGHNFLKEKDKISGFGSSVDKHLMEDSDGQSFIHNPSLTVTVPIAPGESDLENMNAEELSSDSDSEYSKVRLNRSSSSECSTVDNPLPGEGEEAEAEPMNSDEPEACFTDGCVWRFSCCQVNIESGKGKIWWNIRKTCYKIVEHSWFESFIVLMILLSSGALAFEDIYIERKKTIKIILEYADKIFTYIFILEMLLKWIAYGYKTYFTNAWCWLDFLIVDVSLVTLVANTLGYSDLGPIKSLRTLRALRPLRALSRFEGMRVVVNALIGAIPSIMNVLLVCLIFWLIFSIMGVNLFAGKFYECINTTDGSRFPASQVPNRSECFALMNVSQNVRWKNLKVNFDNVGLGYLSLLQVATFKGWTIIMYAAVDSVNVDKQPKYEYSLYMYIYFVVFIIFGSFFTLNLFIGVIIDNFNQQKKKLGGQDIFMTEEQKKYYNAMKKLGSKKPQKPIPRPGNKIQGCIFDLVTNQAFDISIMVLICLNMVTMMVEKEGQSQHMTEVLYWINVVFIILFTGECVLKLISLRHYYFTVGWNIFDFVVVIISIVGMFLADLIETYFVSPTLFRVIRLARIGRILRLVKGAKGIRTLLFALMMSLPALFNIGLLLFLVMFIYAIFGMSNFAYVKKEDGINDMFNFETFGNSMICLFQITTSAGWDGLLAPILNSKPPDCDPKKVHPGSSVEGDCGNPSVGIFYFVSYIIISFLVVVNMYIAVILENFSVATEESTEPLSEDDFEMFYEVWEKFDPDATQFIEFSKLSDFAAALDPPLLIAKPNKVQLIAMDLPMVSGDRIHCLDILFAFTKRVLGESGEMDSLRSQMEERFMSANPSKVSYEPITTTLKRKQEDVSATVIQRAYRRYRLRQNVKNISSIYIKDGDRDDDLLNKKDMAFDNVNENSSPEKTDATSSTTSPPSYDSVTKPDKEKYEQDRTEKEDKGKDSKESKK
EXPERIMENT_NOTES: Nav 1.7 In Vitro PX Assay (PatchXpress whole cell voltage clamp)
Format: cell-based
EXPERIMENTAL_CONDITIONS: in-vitro Nav 1.7 PX data
QUANTITY_KIND: log10 IC50 (log10 of the value in nM)
Hello, just confirming the data are log10 of IC50 with units of nM.

Prompt: Item under review: `CNC(=O)N(c1ccc(S(=O)(=O)Nc2ccon2)cn1)c1cc(Cl)c(-c2cc(F)c(F)c(OC)c2)cc1OC` . Reported log10 IC50?
Response: 1.36

Prompt: Repeat for the following compound: `CNC(=O)N(c1ccc(S(=O)(=O)Nc2nocc2C)cn1)c1cc(F)c(-c2ccc(F)c(OCC(F)(F)F)c2)cc1OC`
Response: 2.79

Prompt: Repeat for the following compound: `CNC(=O)N(c1ccc(S(=O)(=O)Nc2ccon2)cn1)c1cc(Cl)c(-c2ccc(F)c(C)c2)cc1OC`
Response: 1.76

Prompt: Repeat for the following compound: `CNC(=O)N(c1ccc(S(=O)(=O)Nc2ccon2)cn1)c1cc(Cl)c(-c2ccc(Cl)cc2)cc1OC`
Response: 1.72

Prompt: Repeat for the following compound: `CNC(=O)N(c1ccc(S(=O)(=O)Nc2ccon2)cn1)c1cc(Cl)c(-c2cc(Cl)cc(C#N)c2)cc1OC`
Response: 1.68

Prompt: Repeat for the following compound: `CNC(=O)N(c1ccc(S(=O)(=O)Nc2ccon2)cn1)c1cc(F)c(-c2ccc(Cl)c(Cl)c2)cc1OC`
Response: 0.95

Prompt: Repeat for the following compound: `CNC(=O)N(c1ccc(S(=O)(=O)Nc2ccnc(C)n2)cn1)c1cc(Cl)c(-c2ccc(F)c(OCC(F)(F)F)c2)cc1OC`
Response: 1.88

Measured values drawn from patent US10668067B2 for this set.
